Value source: patent US20170210813A1

I'd appreciate it if you could supply kon values for the items below.
# Study system: T1, Macaca fascicularis PDGFRb.mmh (Macaca fascicularis)
# T1 construct: Soluble monomeric construct; also called mfPDGFRb.mmh
# T1 chain: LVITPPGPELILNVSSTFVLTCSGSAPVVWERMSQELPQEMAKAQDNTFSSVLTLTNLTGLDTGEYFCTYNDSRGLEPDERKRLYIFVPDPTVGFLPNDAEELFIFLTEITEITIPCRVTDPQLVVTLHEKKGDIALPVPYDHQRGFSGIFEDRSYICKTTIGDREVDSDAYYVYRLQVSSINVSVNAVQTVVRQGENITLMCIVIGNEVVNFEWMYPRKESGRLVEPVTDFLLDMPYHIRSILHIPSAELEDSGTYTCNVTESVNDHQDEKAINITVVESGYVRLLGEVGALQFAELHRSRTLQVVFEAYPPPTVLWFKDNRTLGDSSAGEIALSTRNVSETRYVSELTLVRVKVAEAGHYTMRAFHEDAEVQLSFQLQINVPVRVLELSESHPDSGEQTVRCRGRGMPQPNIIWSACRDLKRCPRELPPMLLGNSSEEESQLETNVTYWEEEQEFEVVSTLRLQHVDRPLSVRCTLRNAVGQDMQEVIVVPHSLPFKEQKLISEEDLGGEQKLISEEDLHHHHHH
# Procedure summary: SPR, mAb captured, 25 C
Value expressed in M⁻¹ s⁻¹; do not type the unit.

Input line: Could you tell me which kon is on file for H4H3104S (antibody, human IgG4, V domains shown, human IgG4 Fc (H4H prefix)) VH: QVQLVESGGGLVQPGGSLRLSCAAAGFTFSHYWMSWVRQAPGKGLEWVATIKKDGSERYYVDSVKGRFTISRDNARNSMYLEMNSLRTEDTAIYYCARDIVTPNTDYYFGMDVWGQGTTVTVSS VL: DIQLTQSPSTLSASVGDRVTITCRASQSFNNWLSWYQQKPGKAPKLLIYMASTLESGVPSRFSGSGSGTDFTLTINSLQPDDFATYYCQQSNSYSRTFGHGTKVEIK ?
Output line: 786000

Input line: Field entry: H1M3374N (antibody, V domains shown, mouse Fc format; also called H2M3374N) VH: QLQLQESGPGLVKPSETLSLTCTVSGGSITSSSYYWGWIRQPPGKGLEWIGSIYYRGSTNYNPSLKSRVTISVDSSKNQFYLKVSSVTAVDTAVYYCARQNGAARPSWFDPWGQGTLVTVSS VL: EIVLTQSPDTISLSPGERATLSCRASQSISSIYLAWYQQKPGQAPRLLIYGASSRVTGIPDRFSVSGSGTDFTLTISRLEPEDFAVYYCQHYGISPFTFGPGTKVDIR
Output line: 137000

Input line: Param item: H4H3103S (antibody, human IgG4, V domains shown, human IgG4 Fc (H4H prefix)) VH: EVQLLQSGGGLVQPGGSLRLSCAASGFTFSHYWMSWVRQGPGKGLEWVATIKKDGSESYYVDSVRGRFTISRDNAKNSLYLQMNSLRTEDTAVYYCARDIVTPNVGYYFGMDVWGQGTTVTVSS VL: DIQMTQSPSTLSASVGDRVTITCRASQSISSWLSWYQQKPGKAPKLLIYMASTLESGVPSRFSGSGSGTDFTLTITSLQPDDFATYYCQQSNSYSRTFGHGTKLEIK
Output line: 359000

Input line: What about H2M3368N (antibody, V domains shown, mouse Fc (H2M prefix; isotype not spelled out)) VH: QVQLQQWGAGLLKPSETLSLTCAVYGGSFSGYYWTWIRQSPGKGLEWMGEISHRGTTNYNPSLKSRLTISLDTSNNHFSLKLSSVTAADTAVYYCAREERLGMGYDYFGLDVWGQGTTVTVSS VL: EIVLTQSPATLSLSPGERATLSCRASQSVSTYLTWYQQKPGQAPRLLIYDASNRATGIPARFSGSGSGTDFTLTISSLEPEDCAVYYCQQRSIWITFGQGTRLEIK ?
Output line: 7000

Input line: Try this binder next: H4H3098S (antibody, human IgG4, V domains shown, human IgG4 Fc (H4H prefix)) VH: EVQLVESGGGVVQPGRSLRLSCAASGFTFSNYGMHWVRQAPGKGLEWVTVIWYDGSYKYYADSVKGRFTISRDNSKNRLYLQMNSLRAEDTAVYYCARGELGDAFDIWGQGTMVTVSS VL: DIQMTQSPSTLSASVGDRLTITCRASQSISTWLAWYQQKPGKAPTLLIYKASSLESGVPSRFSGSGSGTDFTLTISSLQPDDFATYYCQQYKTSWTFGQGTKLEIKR
Output line: 136000
